Target: T1, SLF1^tBRCT R50A (UniProt Q9BQI6 1-199, R50A)
T1 construct: SMC5/6 localization factor 1 (SLF1), tandem BRCT repeat, residues 1-199, with R50A; also called R50A-substituted SLF1^tBRCT; source: E. coli BL21 Rosetta (DE3), purified (same protocol as the wild type)
T1 sequence (looked up): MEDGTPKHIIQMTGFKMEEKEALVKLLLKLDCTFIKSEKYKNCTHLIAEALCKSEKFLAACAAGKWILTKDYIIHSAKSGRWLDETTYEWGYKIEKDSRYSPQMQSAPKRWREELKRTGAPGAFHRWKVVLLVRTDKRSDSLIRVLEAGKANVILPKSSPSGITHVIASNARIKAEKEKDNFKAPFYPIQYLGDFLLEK
Assay: ITC; MicroCal ITC 200, 25 °C, 20 mM Tris (pH 7.5), 200 mM sodium chloride; 1.3 mM Rad18 peptide or 6 mM BRCTide injected into 0.1 mM (Rad18 peptides) or 0.2 mM (BRCTide) SLF1^tBRCT in the cell; three independent repeats
Conditions: both partners purified
Square brackets hold non-standard residues; d marks the D form. Ends that are not written are not given here. pS = N[C@@H](COP(=O)(O)O)C(=O)O
Quantity: Kd (nM)

Binder	Readout units	Val
SDSCNS[pS]S[pS]DIIRDLLE (peptide, UniProt Q9NS91 436-452, looked up, Rad18, human, Ser442/Ser444-containing region, residues 436-452; also called dually phosphorylated Rad18 peptide; source: synthetic peptide) [Rad18 peptide containing phosphorylated Ser442 and Ser444 (Rad18-2P)]	nM	160
